For reference, the following IC50 results for Ubiquitin carboxyl-terminal hydrolase 7 (Homo sapiens, UniProt Q93009) were taken from various sources.

Input line: Param readout = IC50; param system = Ubiquitin carboxyl-terminal hydrolase 7 (Homo sapiens, UniProt Q93009); param query = `CC(C)c1cnn(Cc2cc3nccc(-c4cc(C#N)cc5c4N([C@@H]4CNC(C)(C)C4)CCC5)c3s2)c(=O)c1` ; response: value
Output line: < 0.01 µM

Input line: Param readout = IC50; param system = Ubiquitin carboxyl-terminal hydrolase 7 (Homo sapiens, UniProt Q93009); param query = `Cc1cc(Cl)cc(-c2ccnc3cc(CN4C(=O)CCC4=O)sc23)c1CN1CCN(C(C)C)C[C@@H]1C` ; response: value
Output line: < 0.01 µM

Input line: Param readout = IC50; param system = Ubiquitin carboxyl-terminal hydrolase 7 (Homo sapiens, UniProt Q93009); param query = `Cn1nc2c(c1-c1ccccc1)CN(C#N)C2` ; response: value
Output line: < 10 µM

Input line: Param readout = IC50; param system = Ubiquitin carboxyl-terminal hydrolase 7 (Homo sapiens, UniProt Q93009); param query = `Cn1nc2c(c1[C@H]1Cc3cc(Cl)cc(-c4ncnc5cc(Cl)ccc45)c3O1)CNCC2` ; response: value
Output line: < 1 µM

Input line: Param readout = IC50; param system = Ubiquitin carboxyl-terminal hydrolase 7 (Homo sapiens, UniProt Q93009); param query = Cc1cc(Cl)cc(-c2ncnc3cc(CN4C(=O)CCC4=O)sc23)c1CC1CNCC2(COC2)O1 (stereo not drawn) ; response: value
Output line: < 0.01 µM

Input line: Param readout = IC50; param system = Ubiquitin carboxyl-terminal hydrolase 7 (Homo sapiens, UniProt Q93009); param query = `N#CN1Cc2cnn(-c3ccc(C(N)=O)cc3)c2C1` ; response: value
Output line: 10 to 30 µM

Input line: Param readout = IC50; param system = Ubiquitin carboxyl-terminal hydrolase 7 (Homo sapiens, UniProt Q93009); param query = CCC(O)c1cc2nccc(-c3cc(Cl)cc4c3OC(c3onc5c3CN(C(C)C)CC5)C4)c2s1 (stereo not drawn) ; response: value
Output line: < 1 µM

Input line: Param readout = IC50; param system = Ubiquitin carboxyl-terminal hydrolase 7 (Homo sapiens, UniProt Q93009); param query = `O=C(CCc1ccc([N+](=O)[O-])cc1)N1CCC(O)(Cn2cnc3cc(Cl)ccc3c2=O)CC1` ; response: value
Output line: > 10 µM

Input line: Param readout = IC50; param system = Ubiquitin carboxyl-terminal hydrolase 7 (Homo sapiens, UniProt Q93009); param query = `Fc1ccc2c(-c3cc(Cl)cc4c3O[C@@H](c3onc5c3CNCC5)C4)ccnc2c1` ; response: value
Output line: < 1 µM

###

For reference, the following IC50 results for Ubiquitin carboxyl-terminal hydrolase 7 (Homo sapiens, UniProt Q93009) were taken from various sources.

Input line: Entry `CC[C@H](O)c1cc2nccc(-c3cc(Cl)cc4c3O[C@](C)(c3onc5c3CNCC5)C4)c2s1` has what IC50?
Output line: 1000 to 10000 nM

Input line: Entry Cc1cc(Cl)cc(-c2ccnc3c(F)c(CN4C(=O)C5CC5C4=O)sc23)c1C[C@@H]1CNCCO1 (some centres unmarked) has what IC50?
Output line: < 10 nM

Input line: Entry `O=C([C@H]1Cc2cc(Cl)cc(-c3ccnc4cc(CCNS(=O)(=O)c5ccccc5)sc34)c2O1)N1CCNCC1` has what IC50?
Output line: < 1000 nM

Input line: Entry `FC(F)(F)c1ccc2c(-c3cc(Cl)cc4c3O[C@@H](c3onc5c3CNCC5)C4)ccnc2c1` has what IC50?
Output line: 1000 to 10000 nM

Input line: Entry CN(C)C1CCCN(C(=O)[C@H]2Cc3cc(Cl)cc(-c4ccnc5cc(CO)sc45)c3O2)C1 (some centres unmarked) has what IC50?
Output line: < 1000 nM

Input line: Entry `CN[C@H]1CCCN(C(=O)[C@H]2Cc3cc(Cl)cc(-c4ccnc5ccsc45)c3O2)C1` has what IC50?
Output line: < 1000 nM

Input line: Entry `N[C@H](Cc1ccccc1)C(=O)N1CCC(O)(Cn2cnc3cc(Cl)ccc3c2=O)CC1` has what IC50?
Output line: > 10000 nM

Input line: Entry `Cc1nc(-c2cc(Cl)cc3c2O[C@@H](c2onc4c2CNCC4)C3)c2sccc2n1` has what IC50?
Output line: 10000 to 30000 nM

Input line: Entry `Cc1cc(Cl)cc(-c2ccnc3cc(CN4C(=O)CCC4=O)sc23)c1CN1CCNCC1(C)C` has what IC50?
Output line: < 10 nM

Input line: Entry `Cc1cc(Cl)cc(-c2ncnc3cc(Cn4c(=O)ccn(C)c4=O)sc23)c1CN1C[C@@H](C)NC[C@@H]1C` has what IC50?
Output line: < 10 nM

Input line: Entry `O=C1CCC(=O)N1Cc1ccc2c(-c3cc(Cl)cc4c3O[C@@H](c3onc5c3CNCC5)C4)ccnc2c1` has what IC50?
Output line: 1000 to 10000 nM

Input line: Entry O=C(C(Cc1ccccc1)c1ccccc1)N1CCC(O)(Cn2cnc3cc(Cl)ccc3c2=O)CC1 (centres unmarked) has what IC50?
Output line: > 10000 nM

Input line: Entry Cc1cc(Cl)cc(-c2ncnc3cc(CN4C(=O)C5C(C4=O)C5(C)C)sc23)c1CN1CCN(C)C[C@@H]1C (some centres unmarked) has what IC50?
Output line: 10 to 100 nM

Input line: Entry `C[C@H](CC(=O)N1CCC(O)(Cn2cnc3c(N)cccc3c2=O)CC1)c1ccccc1` has what IC50?
Output line: 1000 to 10000 nM

Input line: Entry `N#Cc1cc2c(c(-c3ccnc4cc(CN5C(=O)CCC5=O)sc34)c1)N(C1CNC1)CCC2` has what IC50?
Output line: 10 to 100 nM

Input line: Entry O=C(C1Cc2cc(Cl)cc(-c3ccnc4[nH]ccc34)c2O1)N1CCN(c2ccncc2)CC1 (centres unmarked) has what IC50?
Output line: 1000 to 10000 nM

Input line: Entry `N#CN1Cc2[nH]nc(-c3ccc(N4CCOCC4)cc3)c2C1` has what IC50?
Output line: < 10000 nM

###

pIC50: −log10 of the molar value.
For reference, the following pIC50 results for Ubiquitin carboxyl-terminal hydrolase 7 (Homo sapiens, UniProt Q93009) were taken from various sources.

Input line: Param readout = pIC50; param system = Ubiquitin carboxyl-terminal hydrolase 7 (Homo sapiens, UniProt Q93009); param query = CC1CC(=O)N(Cc2cc3nccc(-c4cc(Cl)cc5c4O[C@@H](C(=O)N4CCNCC4)C5)c3s2)C1=O (some centres unmarked) ; response: value
Output line: > 6.00

Input line: Param readout = pIC50; param system = Ubiquitin carboxyl-terminal hydrolase 7 (Homo sapiens, UniProt Q93009); param query = `CC1(C)C[C@H](N2CCCc3cc(C#N)cc(-c4ccnc5cc(CN6C(=O)CN(C7CC7)C6=O)sc45)c32)CN1` ; response: value
Output line: > 8.00

Input line: Param readout = pIC50; param system = Ubiquitin carboxyl-terminal hydrolase 7 (Homo sapiens, UniProt Q93009); param query = COC[C@H]1CCC(=O)N1Cc1cc2ncnc(-c3cc(Cl)cc(C)c3CC3CNCC(C)(C)O3)c2s1 (some centres unmarked) ; response: value
Output line: 7.00 to 8.00

Input line: Param readout = pIC50; param system = Ubiquitin carboxyl-terminal hydrolase 7 (Homo sapiens, UniProt Q93009); param query = `COc1ccc(C(C)C)cc1-c1n[nH]c2c1CN(C#N)C2` ; response: value
Output line: > 5.00

Input line: Param readout = pIC50; param system = Ubiquitin carboxyl-terminal hydrolase 7 (Homo sapiens, UniProt Q93009); param query = CN(C)C1CCCN(C(=O)[C@H]2Cc3cc(Cl)cc(-c4ccnc5ccsc45)c3O2)C1 (some centres unmarked) ; response: value
Output line: > 6.00

Input line: Param readout = pIC50; param system = Ubiquitin carboxyl-terminal hydrolase 7 (Homo sapiens, UniProt Q93009); param query = `O=C([C@H]1Cc2cc(Cl)cc(-c3ccnc4cc(CO)sc34)c2O1)N1CCn2ccnc2C1` ; response: value
Output line: > 6.00

Input line: Param readout = pIC50; param system = Ubiquitin carboxyl-terminal hydrolase 7 (Homo sapiens, UniProt Q93009); param query = CCCC(O)c1cc2nccc(-c3cc(Cl)cc4c3O[C@@H](c3onc5c3CNCC5)C4)c2s1 (some centres unmarked) ; response: value
Output line: > 6.00

Input line: Param readout = pIC50; param system = Ubiquitin carboxyl-terminal hydrolase 7 (Homo sapiens, UniProt Q93009); param query = `[N-]=[N+]=NCCOCCOCC(=O)Nc1ccc2c(=O)n(CC3(O)CCN(C(=O)CCc4ccccc4)CC3)cnc2c1` ; response: value
Output line: < 5.00

###

For reference, the following IC50 results for Ubiquitin carboxyl-terminal hydrolase 7 (Homo sapiens, UniProt Q93009) were taken from various sources.

Input line: Param readout = IC50; param system = Ubiquitin carboxyl-terminal hydrolase 7 (Homo sapiens, UniProt Q93009); param query = `CC(C)Oc1ccc(-c2n[nH]c3c2CN(C#N)C3)cn1` ; response: value
Output line: < 10 µM

Input line: Param readout = IC50; param system = Ubiquitin carboxyl-terminal hydrolase 7 (Homo sapiens, UniProt Q93009); param query = Cc1cc(Cl)cc(-c2ncnc3cc(CN4C(=O)C5CC5C4=O)sc23)c1CN1C[C@@H](C)NC[C@@H]1C (some centres unmarked) ; response: value
Output line: < 0.01 µM

Input line: Param readout = IC50; param system = Ubiquitin carboxyl-terminal hydrolase 7 (Homo sapiens, UniProt Q93009); param query = `COc1ccccc1CCC(=O)N1CCC(O)(Cn2cnc3cc(Cl)ccc3c2=O)CC1` ; response: value
Output line: > 10 µM

Input line: Param readout = IC50; param system = Ubiquitin carboxyl-terminal hydrolase 7 (Homo sapiens, UniProt Q93009); param query = `CN(C)[C@H]1CCN(C(=O)[C@H]2Cc3cc(Cl)cc(-c4ccnc5cc(CO)sc45)c3O2)C1` ; response: value
Output line: 1 to 10 µM

Input line: Param readout = IC50; param system = Ubiquitin carboxyl-terminal hydrolase 7 (Homo sapiens, UniProt Q93009); param query = `Oc1ccnn1Cc1cc2nccc(-c3cc(Cl)cc4c3N(C3CNC3)CCC4)c2s1` ; response: value
Output line: > 1 µM

Input line: Param readout = IC50; param system = Ubiquitin carboxyl-terminal hydrolase 7 (Homo sapiens, UniProt Q93009); param query = `O=C1COC(=O)N1Cc1cc2nccc(-c3cc(Cl)cc4c3N([C@@H]3CNC5(CCC5)C3)CCC4)c2s1` ; response: value
Output line: < 0.01 µM

Input line: Param readout = IC50; param system = Ubiquitin carboxyl-terminal hydrolase 7 (Homo sapiens, UniProt Q93009); param query = CC1(C)C[C@H](N2CCCc3cc(C#N)cc(-c4ccnc5cc(CN6C(=O)C7CC7C6=O)sc45)c32)CN1 (some centres unmarked) ; response: value
Output line: < 0.01 µM

Input line: Param readout = IC50; param system = Ubiquitin carboxyl-terminal hydrolase 7 (Homo sapiens, UniProt Q93009); param query = Cc1cc(Cl)cc(-c2ncnc3cc(Cn4c(=O)ccn(C)c4=O)sc23)c1CC1CNCCO1 (centres unmarked) ; response: value
Output line: < 0.01 µM
